Molecular target: T1, rat IL-25 expressed with a C-terminal myc-myc-hexahistidine tag (rat)
T1 construct: also called Rat IL-25-MMH
T1 chain: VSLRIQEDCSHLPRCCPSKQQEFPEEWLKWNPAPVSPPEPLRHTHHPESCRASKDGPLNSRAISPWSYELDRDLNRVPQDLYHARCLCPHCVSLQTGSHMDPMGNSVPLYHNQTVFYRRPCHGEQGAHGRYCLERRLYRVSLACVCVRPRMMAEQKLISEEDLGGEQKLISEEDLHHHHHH
Test: SPR Biacore, antibody captured, 37C
measurement_name: t½ (min)
# output: bare number, implied unit min

Solved cases (3 shown):
{"binder": "H4H10863P (antibody, human IgG4, V domains shown, H4H prefix = human IgG4 Fc) VH: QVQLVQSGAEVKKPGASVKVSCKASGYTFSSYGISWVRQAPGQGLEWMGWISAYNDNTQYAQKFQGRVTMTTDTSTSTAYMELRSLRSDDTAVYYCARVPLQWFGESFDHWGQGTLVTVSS VL: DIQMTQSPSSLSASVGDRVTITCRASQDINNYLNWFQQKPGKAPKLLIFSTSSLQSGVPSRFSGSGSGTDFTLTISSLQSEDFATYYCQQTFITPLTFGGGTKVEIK", "t½, min": 34}
{"binder": "H4H10907P (antibody, human IgG4, V domains shown, H4H prefix = human IgG4 Fc) VH: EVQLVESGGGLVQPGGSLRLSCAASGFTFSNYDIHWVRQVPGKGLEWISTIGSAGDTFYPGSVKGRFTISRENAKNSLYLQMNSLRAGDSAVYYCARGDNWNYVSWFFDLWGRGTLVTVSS VL: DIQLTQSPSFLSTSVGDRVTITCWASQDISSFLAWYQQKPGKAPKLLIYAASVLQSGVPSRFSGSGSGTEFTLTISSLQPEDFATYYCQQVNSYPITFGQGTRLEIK", "t½, min": 0.6}
{"binder": "H4H10897P (antibody, human IgG4, V domains shown, H4H prefix = human IgG4 Fc) VH: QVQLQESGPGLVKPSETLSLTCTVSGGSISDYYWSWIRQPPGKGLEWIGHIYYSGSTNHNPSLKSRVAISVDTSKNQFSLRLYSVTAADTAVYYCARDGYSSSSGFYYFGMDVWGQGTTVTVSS VL: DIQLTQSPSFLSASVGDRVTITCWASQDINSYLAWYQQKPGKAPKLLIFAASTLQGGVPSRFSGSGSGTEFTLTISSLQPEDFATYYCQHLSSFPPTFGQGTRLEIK", "t½, min": 1.9}

INPUT: # return recorded t½ for entry H4H10871P (antibody, human IgG4, V domains shown, H4H prefix = human IgG4 Fc) VH: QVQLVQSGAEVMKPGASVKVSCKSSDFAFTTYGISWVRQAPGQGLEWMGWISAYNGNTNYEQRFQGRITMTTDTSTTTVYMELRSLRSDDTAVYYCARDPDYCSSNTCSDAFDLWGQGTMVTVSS VL: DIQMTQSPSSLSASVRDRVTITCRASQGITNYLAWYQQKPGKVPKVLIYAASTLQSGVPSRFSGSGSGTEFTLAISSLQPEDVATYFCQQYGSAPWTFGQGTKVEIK
OUTPUT: 205
